System: TZM-bl cells
Assay: TZM-bl cell cytotoxicity (WST-1)
Settings: read-out: CC50 (95% CI), TZM-bl cells; HIV-1 line
measurement-kind: CC50 (µM)
Provide only the numeric value, understood in µM.

query: Provide CC50, tested on TZM-bl cells, for O=S(=O)(O)OCCCCCCCCCSCc1c(CSCCCCCCCCCOS(=O)(=O)O)c(CSCCCCCCCCCOS(=O)(=O)O)c(CSCCCCCCCCCOS(=O)(=O)O)c(CSCCCCCCCCCOS(=O)(=O)O)c1CSCCCCCCCCCOS(=O)(=O)O .
result: 10.5

====

Test: Raji cell cytotoxicity (Zombie NIR flow cytometry)
Conditions: human
measurement-kind: CC50 at 2 days

query: Give CC50 at 2 days for the following molecule: O=S(=O)(O)OCCCCCCCCCSCC(CSCCCCCCCCCOS(=O)(=O)O)(CSCCCCCCCCCOS(=O)(=O)O)CSCCCCCCCCCOS(=O)(=O)O [P4C9S]
result: > 276 µM

====

System: SARS-CoV-2 (Alpha)
Assay: SARS-CoV-2 (alpha strain) inhibition plaque assay on Vero E6 cells
Format: cell-based
Conditions: Severe acute respiratory syndrome coronavirus 2, Vero C1008, read-out: SARS-CoV-2 (Alpha) EC50 (95% CI)
measurement-kind: EC50 (nM)
Provide only the numeric value, understood in nM.

# count of solved cases: 2
O=c1n(CCSCCCCCCCCCOS(=O)(=O)O)c(=O)n(CCSCCCCCCCCCOS(=O)(=O)O)c(=O)n1CCSCCCCCCCCCOS(=O)(=O)O :: 23100
CCc1c(CSCCCCCCCCCOS(=O)(=O)O)c(CC)c(CSCCCCCCCCCOS(=O)(=O)O)c(CC)c1CSCCCCCCCCCOS(=O)(=O)O :: 1100

Now consider the entry below.
query: Give EC50 for the following compound: O=S(=O)(O)OCCCCCCCCCCCSCc1cc(CSCCCCCCCCCCCOS(=O)(=O)O)cc(CSCCCCCCCCCCCOS(=O)(=O)O)c1 [B3C11S]
result: 840

====

Each item that follows carries a reported CC50 at 24 h.
Assay: Vero cell cytotoxicity (MTS assay)
Type: cell-based
Conditions: African green monkey, Vero cells, read-out: CC50 (95% CI), Vero cells
Provide only the numeric value, understood in µM.

O=S(=O)(O)OCCCCCCCCCCCSCc1cc(CSCCCCCCCCCCCOS(=O)(=O)O)cc(CSCCCCCCCCCCCOS(=O)(=O)O)c1 [B3C11S] :: 384
O=S(=O)(O)OCCCCCCCCCSCC(COS(=O)(=O)O)(CSCCCCCCCCCOS(=O)(=O)O)CSCCCCCCCCCOS(=O)(=O)O [P3C9S] :: 522
O=S(=O)(O)OCCCCCCCCCSCc1cc(CSCCCCCCCCCOS(=O)(=O)O)cc(CSCCCCCCCCCOS(=O)(=O)O)c1 [B3C9S] :: 331
CCc1c(CSCCCCCCCCCOS(=O)(=O)O)c(CC)c(CSCCCCCCCCCOS(=O)(=O)O)c(CC)c1CSCCCCCCCCCOS(=O)(=O)O [BET3C9S] :: 81.6
O=S(=O)(O)OCCCCCCCCCSCc1cccc(CSCCCCCCCCCOS(=O)(=O)O)c1CSCCCCCCCCCOS(=O)(=O)O [OB3C9S] :: 135

query: Give CC50 at 24 h for the following molecule: O=c1n(CCSCCCCCCCCCOS(=O)(=O)O)c(=O)n(CCSCCCCCCCCCOS(=O)(=O)O)c(=O)n1CCSCCCCCCCCCOS(=O)(=O)O [A3C9S]
result: 221

query: Give CC50 at 24 h for the following molecule: O=S(=O)(O)OCCCCCCCCCSCC(CSCCCCCCCCCOS(=O)(=O)O)(CSCCCCCCCCCOS(=O)(=O)O)CSCCCCCCCCCOS(=O)(=O)O [P4C9S]
result: 185

====

Experiment: in vitro
Conditions: dog
Each item that follows carries a reported CC50.

query: Give CC50 for the following compound: O=S(=O)(O)OCCCCCCCCCCn1cc(COc2cc(OCc3cn(CCCCCCCCCCOS(=O)(=O)O)nn3)cc(OCc3cn(CCCCCCCCCCOS(=O)(=O)O)nn3)c2)nn1 [BTA3C10S]
result: > 930 µM

query: Give CC50 for the following compound: O=S(=O)(O)OCCCCCCCCCSCc1cc(CSCCCCCCCCCOS(=O)(=O)O)cc(CSCCCCCCCCCOS(=O)(=O)O)c1 [B3C9S]
result: 16.6 µM

====

Experiment: TZM-bl cell cytotoxicity (WST-1)
Conditions: human
measurement-kind: CC50 at 6 h (µM)
Provide only the numeric value, understood in µM.

O=S(=O)(O)OCCCCCCCCCSCC(CSCCCCCCCCCOS(=O)(=O)O)(CSCCCCCCCCCOS(=O)(=O)O)CSCCCCCCCCCOS(=O)(=O)O [P4C9S] :: 18.4

query: Give CC50 at 6 h for the following compound: CCc1c(CSCCCCCCCCCOS(=O)(=O)O)c(CC)c(CSCCCCCCCCCOS(=O)(=O)O)c(CC)c1CSCCCCCCCCCOS(=O)(=O)O [BET3C9S]
result: 29.7

====

Each item that follows carries a reported pEC50.
System: SARS-CoV-2 (Alpha)
Test: SARS-CoV-2 (alpha strain) inhibition plaque assay on Vero E6 cells
Type: cell-based
Conditions: Severe acute respiratory syndrome coronavirus 2, Vero C1008, read-out: SARS-CoV-2 (Alpha) EC50 (95% CI)
The meaning of pEC50 here: minus log10 of the concentration in molar units.

O=S(=O)(O)OCCCCCCCCCSCc1cc(CSCCCCCCCCCOS(=O)(=O)O)cc(CSCCCCCCCCCOS(=O)(=O)O)c1 :: 5.96
O=S(=O)(O)OCCCCCCCCCCO[C@H]1[C@H](OS(=O)(=O)O)[C@H](OCCCCCCCCCCOS(=O)(=O)O)[C@H](OS(=O)(=O)O)[C@@H](OCCCCCCCCCCOS(=O)(=O)O)[C@@H]1OS(=O)(=O)O [I3C10S] :: 3.34
O=S(=O)(O)OCCCCCCCCCSCc1cccc(CSCCCCCCCCCOS(=O)(=O)O)c1CSCCCCCCCCCOS(=O)(=O)O :: 5.85

query: Give pEC50 for the following compound: O=S(=O)(O)OCCCCCCCCCSCC(CSCCCCCCCCCOS(=O)(=O)O)(CSCCCCCCCCCOS(=O)(=O)O)CSCCCCCCCCCOS(=O)(=O)O
result: 6.32

====

Experiment: Vero cell cytotoxicity (MTS assay)
Format: cell-based
Details: African green monkey, Vero cells, read-out: CC50 (95% CI), Vero cells
Each item that follows carries a reported CC50 at 24 h.

query: Give CC50 at 24 h for the following molecule: O=S(=O)(O)OCCCCCCCCCCO[C@H]1[C@H](OS(=O)(=O)O)[C@H](OCCCCCCCCCCOS(=O)(=O)O)[C@H](OS(=O)(=O)O)[C@@H](OCCCCCCCCCCOS(=O)(=O)O)[C@@H]1OS(=O)(=O)O [I3C10S]
result: > 359 µM

query: Give CC50 at 24 h for the following molecule: O=S(=O)(O)OCCCCCCCCCCn1cc(COc2cc(OCc3cn(CCCCCCCCCCOS(=O)(=O)O)nn3)cc(OCc3cn(CCCCCCCCCCOS(=O)(=O)O)nn3)c2)nn1 [BTA3C10S]
result: > 371 µM

query: Give CC50 at 24 h for the following molecule: CCc1c(CSCCCCCCOS(=O)(=O)O)c(CC)c(CSCCCCCCOS(=O)(=O)O)c(CC)c1CSCCCCCCOS(=O)(=O)O
result: > 477 µM

query: Give CC50 at 24 h for the following molecule: O=S(=O)(O)OCCCCCCSCc1cc(CSCCCCCCOS(=O)(=O)O)cc(CSCCCCCCOS(=O)(=O)O)c1
result: > 530 µM

====

Each item that follows carries a reported pEC50.
Tested on: SARS-CoV-2 (Alpha)
Test: SARS-CoV-2 (alpha strain) inhibition plaque assay on Vero E6 cells
Format: cell-based
Details: Severe acute respiratory syndrome coronavirus 2, Vero C1008, read-out: SARS-CoV-2 (Alpha) EC50 (95% CI)
pEC50: −log10 of the molar value.

O=S(=O)(O)OCCCCCCCCCCn1cc(COc2cc(OCc3cn(CCCCCCCCCCOS(=O)(=O)O)nn3)cc(OCc3cn(CCCCCCCCCCOS(=O)(=O)O)nn3)c2)nn1 [BTA3C10S] :: < 4.03

query: Provide pEC50, tested on SARS-CoV-2 (Alpha), for CCc1c(CSCCCCCCOS(=O)(=O)O)c(CC)c(CSCCCCCCOS(=O)(=O)O)c(CC)c1CSCCCCCCOS(=O)(=O)O .
result: < 3.92

query: Provide pEC50, tested on SARS-CoV-2 (Alpha), for O=S(=O)(O)OCCOCCOCCOCCSCc1cc(CSCCOCCOCCOCCOS(=O)(=O)O)cc(CSCCOCCOCCOCCOS(=O)(=O)O)c1 .
result: < 3.40

query: Provide pEC50, tested on SARS-CoV-2 (Alpha), for O=S(=O)(O)OCCCCCCCCCSCC(COS(=O)(=O)O)(COS(=O)(=O)O)CSCCCCCCCCCOS(=O)(=O)O .
result: < 2.89
